- TEST_TARGET: HLA-A*26:03
- PROTOCOL_DETAILS: IEDB peptide-MHC binding, purified MHC/direct/fluorescence; filed as Kd, often an IC50 or EC50 that approximates it; bounds were set here for any values at or beyond the usual limits of such assays
- EXPERIMENTAL_SETUP: source organism: Vibrio cholerae V52
pKd: −log10 of the molar value.
VALUE_TYPE: pKd

Looking up REVFDYLLP , I found its pKd recorded as ≤ 4.70

---

- TEST_TARGET: HLA-A*02:01
- PROTOCOL_DETAILS: IEDB peptide-MHC binding, purified MHC/competitive/radioactivity; filed as Kd, often an IC50 or EC50 that approximates it; bounds were set here for any values at or beyond the usual limits of such assays
- EXPERIMENTAL_SETUP: source organism: Dengue virus 2 Jamaica/1409/1983
VALUE_TYPE: Kd (nM)
Numbers only, in nM.

Tested on HLA-A*02:01, the item RLLTKPWDV showed Kd equal to 27.6

---

- TEST_TARGET: HLA-A*03:01
- PROTOCOL_DETAILS: IEDB peptide-MHC binding, purified MHC/direct/fluorescence; filed as Kd, often an IC50 or EC50 that approximates it; bounds were set here for any values at or beyond the usual limits of such assays
- EXPERIMENTAL_SETUP: source organism: Marburg virus - Musoke, Kenya, 1980
VALUE_TYPE: Kd

Looking up QVGIFLICK , I found its Kd recorded as ≥ 20 µM

---

I'd be grateful if you could share measured Kd for these entries.
- TEST_TARGET: HLA-B*53:01
- PROTOCOL_DETAILS: IEDB peptide-MHC binding, purified MHC/competitive/radioactivity; filed as Kd, often an IC50 or EC50 that approximates it; bounds were set here for any values at or beyond the usual limits of such assays
- EXPERIMENTAL_SETUP: source organism: Dengue virus 2 Jamaica/1409/1983
Numbers only, in nM.

The following sequences have reported results that may help.
KPTLDFELI = 279
FMALVAFLRF = 1000

Now for the sequence whose Kd we want.
Looking up HPGFTIMAAI , I found its Kd recorded as 66.5

---

- TEST_TARGET: HLA-A*02:02
- PROTOCOL_DETAILS: IEDB peptide-MHC binding, purified MHC/competitive/radioactivity; filed as Kd, often an IC50 or EC50 that approximates it; bounds were set here for any values at or beyond the usual limits of such assays
- EXPERIMENTAL_SETUP: source organism: Vaccinia virus WR
I'd be grateful if you could share measured pKd for these entries.
Answers are plain numbers, as −log10 of the molar value.

The following sequences have reported results that may help.
QLFKYVPSA = 7.91
NITHTNITTL = 4.98
NVDVGCLLT = 5.01
VMDTLNGIMM = 8.12

Parameter requested: pKd. Apply to each item below.
1. FTILEYLYIM
2. TVGMSIVCIV
3. ALWDSNFFT
4. ELVMDKNHAI
5. IMEIVSHLRA

A:
1. 6.45
2. 6.28
3. 5.97
4. 4.85
5. 6.02

Parameter requested: pKd. Apply to each item below.
1. SLSNLDFRL
2. AILHNIYRL
3. KIDILQMREI
4. YTFAISYCRA
5. SVDIETAIRA
6. NVSRVVECLT

A:
5.88
6.97
5.89
6.49
5.55
5.33

Parameter requested: pKd. Apply to each item below.
1. LTNAISSRV
2. WLRAKRKPAM
3. IMRNFLRSIA
4. ALKNSQAEL
5. NLETYTRPEI

A:
1: 6.84; 2: 5.33; 3: 7.22; 4: 7.15; 5: 6.27

Parameter requested: pKd. Apply to each item below.
1. PTIEDDKIVT
2. DIIDLLLPST

A:
[4.86, 4.84]

Parameter requested: pKd. Apply to each item below.
1. YVVIVENDNV
2. QQNNSFIIST
3. EMQLKIDKLT
4. CVSNLDISSV
5. IVYGRSNAI
6. SQAKKPEVRI
7. DIKYISRDEL
8. EMVEYLENQL

A:
5.63
5.15
5.02
7.29
7.83
4.97
5.59
6.67

Parameter requested: pKd. Apply to each item below.
1. DITNILGGVL
2. SIVCIVAAV
3. GVSGLYIPGT

A:
[4.91, 8.41, 6.85]

Parameter requested: pKd. Apply to each item below.
1. YVSPTEMVDV
2. YIALCKVTV
3. KINNNRIVAM
4. NIYRLFTRCA
5. NVQSLIKFI

A:
[7.20, 7.91, 5.04, 5.00, 4.89]

Looking up NTISGNIYSA , I found its pKd recorded as 6.57
